- Assay Notes: Ribociclib plasma pharmacokinetics with T-DM1 (LC-MS/MS, noncompartmental)
- Assay type: in vivo, human
- Particulars: human, plasma, oral, 400 mg, dose no. 13 (steady state), 1 patient; read-out: Cmax
Observed Property: Cmax

molecule="CN(C)C(=O)c1cc2cnc(Nc3ccc(N4CCNCC4)cn3)nc2n1C1CCCC1 [ribociclib]" val="871 ng/mL"

---

- Assay Notes: Ribociclib plasma pharmacokinetics with T-DM1 (LC-MS/MS, noncompartmental)
- Type: in vivo, human
- Particulars: human, plasma, oral, 300 mg, dose no. 11-12 (steady state), 3 patients, geometric mean; read-out: Cmax
Observed Property: Cmax

structure=CN(C)C(=O)c1cc2cnc(Nc3ccc(N4CCNCC4)cn3)nc2n1C1CCCC1 val="608 ng/mL"

---

- Assay Notes: Ribociclib plasma pharmacokinetics with T-DM1 (LC-MS/MS, noncompartmental)
- Assay type: in vivo, human
- Particulars: human, plasma, oral, 400 mg, dose no. 13 (steady state), 1 patient; read-out: AUC24
Observed Property: AUC

compound="CN(C)C(=O)c1cc2cnc(Nc3ccc(N4CCNCC4)cn3)nc2n1C1CCCC1 [ribociclib]" val="8430 ng·h/mL"

---

- Assay Notes: Ribociclib plasma pharmacokinetics with T-DM1 (LC-MS/MS, noncompartmental)
- Format: in vivo, human
- Particulars: human, plasma, oral, 300 mg, dose no. 1, 3 patients, geometric mean; read-out: AUC24
- Method: Additional samples were collected according to this same schedule after the drug was taken for at least 8 days consecutive without interruption to define its steady-state pharmacokinetics. […] Actual time points were calculated as the difference between the blood sample collection time and the time that the drug was taken. […] Total oral clearance (CL/F) was calculated as the dose divided by the AUC24 for the dose given on days 19–21. […]
Observed Property: AUC

compound="CN(C)C(=O)c1cc2cnc(Nc3ccc(N4CCNCC4)cn3)nc2n1C1CCCC1 [ribociclib]" val="5330 ng·h/mL"

---

- Assay Notes: Ribociclib plasma pharmacokinetics with T-DM1 (LC-MS/MS, noncompartmental)
- Assay type: in vivo, human
- Particulars: human, plasma, oral, 600 mg, dose no. 1, 3 patients, geometric mean; read-out: Cmax
Observed Property: Cmax (ng/mL)

structure=CN(C)C(=O)c1cc2cnc(Nc3ccc(N4CCNCC4)cn3)nc2n1C1CCCC1 observed_property=Cmax val=1270

---

- Assay Notes: Ribociclib plasma pharmacokinetics with T-DM1 (LC-MS/MS, noncompartmental)
- Format: in vivo, human
- Particulars: human, plasma, oral, 300 mg, dose no. 1, 3 patients, geometric mean; read-out: Cmax
Observed Property: Cmax (ng/mL)

structure=CN(C)C(=O)c1cc2cnc(Nc3ccc(N4CCNCC4)cn3)nc2n1C1CCCC1 observed_property=Cmax endpoint_unit=ng/mL val=505

---

- Assay Notes: Ribociclib plasma pharmacokinetics with T-DM1 (LC-MS/MS, noncompartmental)
- Type: in vivo, human
- Particulars: human, plasma, oral, 600 mg, dose no. 13 (steady state), 1 patient; read-out: AUC24
Observed Property: AUC

structure=CN(C)C(=O)c1cc2cnc(Nc3ccc(N4CCNCC4)cn3)nc2n1C1CCCC1 val="22000 ng·h/mL"
